Test: Antiproliferative activity against human MCF7 cells after 48 hrs by SRB assay
Type: functional
Settings: MCF7, 48 h
MEASURE: GI50 (µM)
Numbers only, in µM.

Worked examples, 2 compounds total:
structure_smiles=COC(=O)Nc1nc2cc(C(=O)c3cccs3)ccc2[nH]1 measure=GI50 endpoint_result=0.94
structure_smiles=COc1cc(Cn2cc(CNC(=O)c3cn(-c4ccccc4)nc3-c3ccc(Cl)cc3)nn2)cc(OC)c1OC measure=GI50 endpoint_result=2.5

Okay, here is my list. What is GI50 for each of these?
1. COc1cc(Cn2cc(CNC(=O)c3cn(-c4ccccc4)nc3-c3ccc(F)cc3)nn2)cc(OC)c1OC
2. COc1ccc(-c2nn(-c3ccccc3)cc2C(=O)NCc2cn(Cc3cc(OC)c(OC)c(OC)c3)nn2)cc1
3. O=C(NCc1cn(Cc2ccc(Cl)cc2)nn1)c1cn(-c2ccccc2)nc1-c1ccc(Cl)cc1
4. COc1ccc(Cn2cc(CNC(=O)c3cn(-c4ccccc4)nc3-c3ccc(Cl)cc3)nn2)cc1
5. COc1ccc(Cn2cc(CNC(=O)c3cn(-c4ccccc4)nc3-c3ccc(OC)cc3)nn2)cc1
6. O=C(NCc1cn(Cc2ccc(C(F)(F)F)cc2)nn1)c1cn(-c2ccccc2)nc1-c1ccc(Cl)cc1
7. O=C(NCc1cn(Cc2ccc(F)cc2)nn1)c1cn(-c2ccccc2)nc1-c1ccc(Cl)cc1
8. COc1ccc(Cn2cc(CNC(=O)c3cn(-c4ccccc4)nc3-c3ccccc3)nn2)cc1OC

-- reply
1. 4.3
2. 7.6
3. 28.8
4. 8
5. 22.9
6. 4.9
7. 0.57
8. 12.6

Okay, here is my list. What is GI50 for each of these?
1. COc1cc(Cn2cc(CNC(=O)c3cn(-c4ccccc4)nc3-c3ccc(Cl)cc3)nn2)cc(OC)c1
2. COc1ccc(-c2nn(-c3ccccc3)cc2C(=O)NCc2cn(Cc3cc(OC)cc(OC)c3)nn2)cc1
3. O=C(NCc1cn(Cc2ccc(C(F)(F)F)cc2)nn1)c1cn(-c2ccccc2)nc1-c1ccc(F)cc1

-- reply
1. 0.15
2. 0.7
3. 0.81
